These entries and their values trace back to ChEMBL document CHEMBL3046018.

Measured inhibition of growth at 150 g/ha by item
- Test system: Echinochloa crus-galli
- test.summary: Herbicidal activity against Echinochloa crus-galli (barnyard grass) assessed as growth inhibition at 150 g ai/ha using post-emergence protocol under greenhouse conditions measured 15 days after compound treatment
- Assay type: functional
- condition.summary: 360 h, read-out: GI

>>> assay_value("C#CCOc1cc(N2C(=O)C3CCCCC3C2O)c(F)cc1Cl (stereo unspecified)")
"< 50%"
>>> assay_value("C=CCOc1cc(N2C(=O)C3=C(CCCC3)C2OCC=C)c(F)cc1Cl (stereo unspecified)")
"50%"
>>> assay_value("CCOc1cc(Cl)c([N+](=O)[O-])cc1N1C(=O)C2=C(CCCC2)C1O (stereo unspecified)")
"< 50%"
>>> assay_value("CCOC(=O)C(C)Oc1cc(N2C(=O)C3CCCCC3C2=O)c(F)cc1Cl (stereo unspecified)")
"< 50%"
>>> assay_value("CCOC(=O)COc1cc(N2C(=O)C3CCCCC3C2O)c(F)cc1Cl (stereo unspecified)")
"< 50%"

QUERY: Given C=CCOc1cc(N2C(=O)C3=C(CCCC3)C2O)c(F)cc1Cl (stereo unspecified) , respond with its inhibition of growth at 150 g/ha.
RESULT: < 50%

QUERY: Please report the measured inhibition of growth at 150 g/ha for COc1cc(N2C(=O)C3CCCCC3C2O)c(F)cc1Cl (stereo unspecified)
RESULT: < 50%

QUERY: Tell me its inhibition of growth at 150 g/ha given CCOC(=O)C(C)Oc1cc(N2C(=O)C3CCCCC3C2O)c(F)cc1Cl (stereo unspecified) as the entry.
RESULT: < 50%

QUERY: Return reported inhibition of growth at 150 g/ha. Input compound: `CCOc1cc(N2CC3=C(CCCC3)C2=O)c(F)cc1Cl`
RESULT: > 80%

QUERY: Provide only the value of recorded inhibition of growth at 150 g/ha for C=CCOC1C2=C(CCCC2)C(=O)N1c1cc(O)c(Br)cc1F (stereo unspecified)
RESULT: 50%

QUERY: Given `C=CCOc1cc(N2CC3=C(CCCC3)C2=O)c(F)cc1Cl` , respond with its inhibition of growth at 150 g/ha.
RESULT: > 80%

* * *

Reported inhibition of growth at 150 g/ha values are given for each entry in this list.
- System: Digitaria sanguinalis
- test.summary: Herbicidal activity against Digitaria sanguinalis (hairy crabgrass) assessed as growth inhibition at 150 g ai/ha using post-emergence protocol under greenhouse conditions measured 15 days after compound treatment
- Format: functional
- condition.summary: 360 h, read-out: GI

>>> assay_value("COc1cc(N2C(=O)C3=C(CCCC3)C2OC)c(F)cc1Cl (centres undefined)")
"50%"

QUERY: Specify inhibition of growth at 150 g/ha for C#CCOc1cc(N2C(=O)C3CCCCC3C2O)c(F)cc1Cl (centres undefined) and stop.
RESULT: < 50%

QUERY: Tell me measured inhibition of growth at 150 g/ha for COc1cc(N2C(=O)C3CCCCC3C2O)c(F)cc1Cl (centres undefined) please.
RESULT: < 50%

* * *

Quick list: inhibition of growth at 150 g/ha per entry.
- System: Echinochloa crus-galli
- test.summary: Herbicidal activity against Echinochloa crus-galli (barnyard grass) assessed as growth inhibition at 150 g ai/ha using post-emergence protocol under greenhouse conditions measured 15 days after compound treatment
- Assay type: functional
- condition.summary: 360 h, read-out: GI

QUERY: In one line, give reported inhibition of growth at 150 g/ha of the entry C=CCOc1cc(N2C(=O)C3=C(CCCC3)C2O)c(Cl)cc1Cl (stereo unspecified) .
RESULT: < 50%

QUERY: Answer with reported inhibition of growth at 150 g/ha of CCOC(=O)COc1cc(N2C(=O)C3CCCCC3C2=O)c(F)cc1Cl (stereo unspecified)
RESULT: < 50%

QUERY: Could you please provide reported inhibition of growth at 150 g/ha for COc1cc(N2C(=O)C3CCCCC3C2=O)c(F)cc1Cl (stereo unspecified) ? Thanks!
RESULT: 50%

QUERY: Please report the measured inhibition of growth at 150 g/ha for `CCOc1cc(N2CC3=C(CCCC3)C2=O)c(Cl)cc1Cl`
RESULT: < 50%

QUERY: Give the reported inhibition of growth at 150 g/ha for this molecule. C=CCOc1cc(N2C(=O)C3CCCCC3C2O)c(F)cc1Cl (stereo unspecified)
RESULT: < 50%

QUERY: Indicate its recorded inhibition of growth at 150 g/ha; the molecule in question is O=C1C2=C(CCCC2)C(O)N1c1cc(O)c(Br)cc1F (stereo unspecified)
RESULT: < 50%

QUERY: Look up inhibition of growth at 150 g/ha of C=CCOC1C2=C(CCCC2)C(=O)N1c1cc(OCC)c(Cl)cc1F (stereo unspecified) and report it.
RESULT: 50%

QUERY: Quote inhibition of growth at 150 g/ha reported for O=C1C2=C(CCCC2)C(O)N1c1cc(OCc2cccc(Cl)c2)c(Cl)cc1F (stereo unspecified) please.
RESULT: < 50%

QUERY: Fill in inhibition of growth at 150 g/ha for record COc1cc(N2C(=O)C3=C(CCCC3)C2OC)c(F)cc1Cl (stereo unspecified)
RESULT: 50%

QUERY: Tell us which inhibition of growth at 150 g/ha value is on record for `CCCOc1cc(N2CC3=C(CCCC3)C2=O)c(F)cc1Cl`
RESULT: > 80%

QUERY: Specify inhibition of growth at 150 g/ha for `Nc1cc(N2CC3=C(CCCC3)C2=O)ccc1Cl` and stop.
RESULT: < 50%

* * *

Entries and their inhibition of growth at 150 g/ha values follow.
- System: Setaria viridis
- test.summary: Herbicidal activity against Setaria viridis assessed as growth inhibition at 150 g ai/ha using post-emergence protocol under greenhouse conditions measured 15 days after compound treatment
- Type: functional
- condition.summary: 360 h, read-out: GI

QUERY: Look up inhibition of growth at 150 g/ha of C=CCOc1cc(N2C(=O)C3=C(CCCC3)C2O)c(F)cc1Cl (stereo unspecified) and report it.
RESULT: < 50%

QUERY: # return recorded inhibition of growth at 150 g/ha for input CCOC(=O)C(C)Oc1cc(N2C(=O)C3CCCCC3C2O)c(F)cc1Cl (stereo unspecified)
RESULT: < 50%

QUERY: Give the reported inhibition of growth at 150 g/ha for this compound. O=C1C2=C(CCCC2)C(O)N1c1cc(O)c(Br)cc1F (stereo unspecified)
RESULT: < 50%

QUERY: Complete the entry with inhibition of growth at 150 g/ha for C=CCOc1cc(N2C(=O)C3=C(CCCC3)C2O)c(Cl)cc1Cl (stereo unspecified)
RESULT: < 50%

QUERY: Determine from records and report inhibition of growth at 150 g/ha for O=C1C2=C(CCCC2)C(O)N1c1cc(OCc2cccc(Cl)c2)c(Cl)cc1F (stereo unspecified)
RESULT: < 50%

QUERY: Give the reported value of inhibition of growth at 150 g/ha for this record: C=CCOc1cc(N2C(=O)C3=C(CCCC3)C2OCC=C)c(F)cc1Cl (stereo unspecified)
RESULT: > 80%

QUERY: Provide inhibition of growth at 150 g/ha value for the following compound: `CCOc1cc(N2CC3=C(CCCC3)C2=O)c(F)cc1Cl`
RESULT: > 80%

QUERY: Report inhibition of growth at 150 g/ha, nothing else, for this compound: CCOC(=O)COc1cc(N2C(=O)C3CCCCC3C2=O)c(F)cc1Cl (stereo unspecified)
RESULT: < 50%

QUERY: Provide only the value of recorded inhibition of growth at 150 g/ha for C=CCOC1C2=C(CCCC2)C(=O)N1c1cc(O)c(Br)cc1F (stereo unspecified)
RESULT: < 50%

QUERY: Tell us which inhibition of growth at 150 g/ha value is on record for `CCOc1cc(N2CC3=C(CCCC3)C2=O)c(Cl)cc1Cl`
RESULT: < 50%

QUERY: For the compound `Cc1nn(-c2cc(NS(C)(=O)=O)c(Cl)cc2Cl)c(=O)n1C(F)F` , give its measured inhibition of growth at 150 g/ha value.
RESULT: > 80%

* * *

Recorded measurements of inhibition of growth at 150 g/ha, one per entry
- Tested on: Chenopodium album
- test.summary: Herbicidal activity against Chenopodium album assessed as growth inhibition at 150 g ai/ha using post-emergence protocol under greenhouse conditions measured 15 days after compound treatment
- Assay type: functional
- condition.summary: 360 h, read-out: GI
// return numeric value only (unit: %, not printed)

For orientation, consider the following solved cases.
>>> assay_value("CCOC(=O)C(C)Oc1cc(N2C(=O)C3CCCCC3C2=O)c(F)cc1Cl (stereo not given)")
50
>>> assay_value("CCOc1cc(Cl)c([N+](=O)[O-])cc1N1C(=O)C2=C(CCCC2)C1O (stereo not given)")
50
>>> assay_value("C=CCOC1C2=C(CCCC2)C(=O)N1c1cc(O)c(Br)cc1F (stereo not given)")
50

Proceeding to the next molecule to report its inhibition of growth at 150 g/ha.
QUERY: Item `CCCOc1cc(N2CC3=C(CCCC3)C2=O)c(F)cc1Cl` : provide inhibition of growth at 150 g/ha
RESULT: 100
